- assayNotes: in vitro
- measurementSetup: human, blood plasma (20% v/v), pH 7.4
Starred links: 1 amine or outer side, 2 acyl side, 3 side chain; linkers in the order of their positions; H or OH if unused. Positions of bridges follow the written chain, without caps; N, C: chain ends. Non-standard residues stand in square brackets, D forms with d. Residues, ends and D or L forms follow the SMILES beside them. Chains are numbered I, II in the order given. εLys = N[C@@H](CCCCN[*:1])C(=O)[*:2]
assayEndpoint: remaining at 0.5 h, 200 μM (%)
Your answer should be a plain number; it is taken to be in %.

[ask] Tell us which remaining at 0.5 h, 200 μM value is on record for CC(C)C[C@H](NC(=O)[C@H](CC(C)C)NC(=O)[C@@H](N)CCCCNC(=O)[C@H](CC(C)C)NC(=O)[C@H](CC(C)C)NC(=O)[C@H](CCCCN)NC(=O)[C@@H](N)CCCCNC(=O)[C@H](CC(C)C)NC(=O)[C@H](CC(C)C)NC(=O)[C@H](CCCCN)NC(=O)[C@@H](N)CCCCNC(=O)[C@H](CC(C)C)NC(=O)[C@H](CC(C)C)NC(=O)[C@H](CCCCN)NC(=O)[C@@H](N)CC(C)C)C(N)=O [Amp1EP] (I: H-LKLL[εLys]KLL / II: H-KKLL[εLys]LL-NH2; amide I:C-II:1)
[reply] 85

---

- assayNotes: in vitro
- measurementSetup: human, blood plasma (20% v/v), pH 7.4
Starred links: 1 amine or outer side, 2 acyl side, 3 side chain; linkers in the order of their positions; H or OH if unused. Positions of bridges follow the written chain, without caps; N, C: chain ends. Non-standard residues stand in square brackets, D forms with d. Residues, ends and D or L forms follow the SMILES beside them. Chains are numbered I, II in the order given. εLys = N[C@@H](CCCCN[*:1])C(=O)[*:2]
assayEndpoint: remaining at 4 h, 200 μM (%)
Your answer should be a plain number; it is taken to be in %.

[ask] Tell us which remaining at 4 h, 200 μM value is on record for CC(C)C[C@H](NC(=O)[C@H](CC(C)C)NC(=O)[C@@H](N)CCCCNC(=O)[C@H](CC(C)C)NC(=O)[C@H](CC(C)C)NC(=O)[C@H](CCCCN)NC(=O)[C@@H](N)CCCCNC(=O)[C@H](CC(C)C)NC(=O)[C@H](CC(C)C)NC(=O)[C@H](CCCCN)NC(=O)[C@@H](N)CCCCNC(=O)[C@H](CC(C)C)NC(=O)[C@H](CC(C)C)NC(=O)[C@H](CCCCN)NC(=O)[C@@H](N)CC(C)C)C(N)=O [Amp1EP] (I: H-LKLL[εLys]KLL / II: H-KKLL[εLys]LL-NH2; amide I:C-II:1)
[reply] 37

---

- assayNotes: in vitro
- measurementSetup: human, blood plasma (20% v/v), pH 7.4
No end group written: not given here.
Recorded remaining at 2 h, 200 μM values for a group of substances are listed next.
Your answer should be a plain number; it is taken to be in %.

[ask] Tell us which remaining at 2 h, 200 μM value is on record for LKLLKKLLKKLLKLL-NH2 [Amp1L]
[reply] 61

[ask] Tell us which remaining at 2 h, 200 μM value is on record for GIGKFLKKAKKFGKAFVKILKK-NH2 [MSI-78]
[reply] 63
